Tested on: Klebsiella pneumoniae
Experiment: Antibacterial activity determined against gram-negativeK. pneumoniae 13383
Format: functional
measurement.name: MIC (µM)
Only the number, expressed in µM, is required.

query: Look up and report MIC, with Klebsiella pneumoniae as system, for "CCCCCCNCc1ccc(Cn2c(C3CCNCC3)nc3cc(Cl)c(Cl)cc32)cc1"
result: 6

query: State, for Klebsiella pneumoniae, measured MIC of the molecule listed here: "NCCN(CCN)CCNCc1ccc(Cn2c(C3CCNCC3)nc3cc(Cl)c(Cl)cc32)cc1"
result: 12

query: Look up and report measured MIC (Klebsiella pneumoniae) for the following molecule: "Clc1cc2nc(C3CCNCC3)n(Cc3ccc(CNC4CCNCC4)cc3)c2cc1Cl"
result: 12

query: State MIC on Klebsiella pneumoniae. Entry: "CCCCCNCc1ccc(Cn2c(C3CCNCC3)nc3cc(Cl)c(Cl)cc32)cc1"
result: 6

query: Check Klebsiella pneumoniae data and give MIC for "Clc1cc2nc(C3CCNCC3)n(Cc3ccc(CNCCc4c[nH]cn4)cc3)c2cc1Cl" .
result: 12

query: Under Klebsiella pneumoniae: report MIC of "NCCNCc1ccc(Cn2c(C3CCNCC3)nc3cc(Cl)c(Cl)cc32)cc1" .
result: 12

query: Recall the reported MIC of "NCCCNCc1ccc(Cn2c(C3CCNCC3)nc3cc(Cl)c(Cl)cc32)cc1" when tested on Klebsiella pneumoniae.
result: 25

query: Enter MIC (test system Klebsiella pneumoniae) for "Clc1cc2nc(C3CCNCC3)n(Cc3ccc(CN4CCNCC4)cc3)c2cc1Cl"
result: 6

====

Please respond with reported MIC for every item in the list.
Tested on: Enterococcus faecalis
Test: Antibacterial activity determined against Enterococcus faecalis ATCC 4200
Type: functional
Numbers only; they are read as µM.

query: Identify measured MIC obtained with Enterococcus faecalis for "Clc1cc2nc(C3CCNCC3)n(Cc3ccc(CN4CCCNCC4)cc3)c2cc1Cl" .
result: 12

query: Provide Enterococcus faecalis MIC reading for "Clc1cc2nc(C3CCNCC3)n(Cc3ccc(CNCCCn4ccnc4)cc3)c2cc1Cl" .
result: 12

query: Report measured MIC on Enterococcus faecalis; entry: "Clc1cc2nc(C3CCNCC3)n(Cc3ccc(CN4CCNCC4)cc3)c2cc1Cl"
result: 12
